target: ZFP SBS#1015 (synthetic); assay: EMSA; conditions: tags: MBP fusion
Sequence (chain, as listed by the source): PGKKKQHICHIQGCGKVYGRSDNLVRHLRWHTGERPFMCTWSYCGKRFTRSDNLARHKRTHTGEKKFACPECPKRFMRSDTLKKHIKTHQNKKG
Parameter: Kd (pM)
Give just the number in pM; leave the unit off.

Problem: # Kd lookup, item GCGGAGGAG (dsDNA) DNA 1: GCGGAGGAG DNA 2: CTCCTCCGC
Solution: 8
